// provenance: PubChem BioAssay AID686929

Assay: V. cholerae BH1578 lux luminescence induction, luxS cqsA deficient, confirmatory dose response (AID 686929)
Details: V. cholerae BH1578 lux luminescence induction, 6 h; at 100 µM (top of the series)
Parameter: activation (light induction) (%)

[
  {
    "Query smiles": "Cc1ccc2cc3c(NC(=O)Cc4ccco4)nn(C)c3nc2c1",
    "Observed": 0.2
  },
  {
    "Query smiles": "CN(C)/C=N/c1nnc(-c2ccc3c(c2)OCCO3)o1",
    "Observed": 0.03
  },
  {
    "Query smiles": "O=C(Nc1nnc(-c2ccc3c(c2)OCCO3)o1)C(F)(F)c1ccccc1",
    "Observed": -0.005
  },
  {
    "Query smiles": "C(=N\\c1nnc(-c2ccc3c(c2)OCCO3)o1)/c1ccccc1",
    "Observed": 0.009
  },
  {
    "Query smiles": "COc1ccc(-c2nnc(NC(C)=O)o2)cc1",
    "Observed": 0.061
  },
  {
    "Query smiles": "CCn1nnnc1/N=C/c1ccc(N2CCCCC2)cc1",
    "Observed": 0.106
  }
]

====

Experiment: V. cholerae BH1578 lux luminescence induction, luxS cqsA deficient, confirmatory dose response (AID 686929)
Details: V. cholerae BH1578 lux luminescence induction, 6 h; at 100 µM (top of the series)
Recorded measurements of activation (light induction), one per entry

[
  {
    "Compound": "Cc1ccc2cc3c(NC(=O)c4ccc(C)o4)nn(C)c3nc2c1",
    "activation (light induction), %": -0.007
  },
  {
    "Compound": "CC(C)c1ccc2cc3c(NC(=O)c4ccco4)nn(C)c3nc2c1",
    "activation (light induction), %": 0.254
  },
  {
    "Compound": "O=C(Nc1nnc(-c2cccnc2)o1)C1CCC1",
    "activation (light induction), %": 0
  },
  {
    "Compound": "Cn1ccc(NC(=O)c2ccco2)n1",
    "activation (light induction), %": 0.065
  },
  {
    "Compound": "O=C(Cc1ccc(-c2ccccc2)cc1)NC1COC1",
    "activation (light induction), %": 1.9
  },
  {
    "Compound": "Cn1nc(NC(=O)c2ccco2)c2cc3ccc(C(C)(C)C)cc3nc21",
    "activation (light induction), %": -0.001
  },
  {
    "Compound": "O=S(=O)(Nc1nnc(-c2ccc3c(c2)OCCO3)o1)c1ccc(Cl)cc1",
    "activation (light induction), %": -0.005
  },
  {
    "Compound": "COc1ccc(S(=O)(=O)Nc2nnc(-c3ccc4c(c3)OCCO4)o2)cc1",
    "activation (light induction), %": 0.008
  },
  {
    "Compound": "Cn1nc(NC(=O)c2ccco2)c2ccccc21",
    "activation (light induction), %": 0.203
  },
  {
    "Compound": "O=C(Nc1nnc(-c2cccnc2)o1)C1CCCCC1",
    "activation (light induction), %": 3.01
  },
  {
    "Compound": "O=C(Cc1ccc(-c2ccccc2)cc1)NC1CNC1",
    "activation (light induction), %": 0.02
  },
  {
    "Compound": "O=C(Nc1nnc(-c2ccccc2Cl)o1)C1CCCCC1",
    "activation (light induction), %": 0.002
  },
  {
    "Compound": "CCn1nnnc1N",
    "activation (light induction), %": 0.004
  },
  {
    "Compound": "c1ccc(CNc2nnc(-c3ccc4c(c3)OCCO4)o2)cc1",
    "activation (light induction), %": 0.008
  },
  {
    "Compound": "COc1cccc(-c2nnc(NC(=O)C3CCCCC3)o2)c1",
    "activation (light induction), %": 0
  },
  {
    "Compound": "O=C(Nc1nnc(-c2ccc3c(c2)OCCO3)o1)C1CC1",
    "activation (light induction), %": 0.006
  },
  {
    "Compound": "O=C(Nc1nnc(-c2ccncc2)o1)C1CCC1",
    "activation (light induction), %": 0.061
  },
  {
    "Compound": "CC(C)(C)OC(=O)N1CCC(C(=O)Nc2nnc(-c3ccc4c(c3)OCCO4)o2)CC1",
    "activation (light induction), %": 0.022
  },
  {
    "Compound": "CCn1nnnc1NC(C)c1ccc(N2CCCC2)cc1 (stereo not given)",
    "activation (light induction), %": 11.2
  },
  {
    "Compound": "O=C(Cc1ccc(-c2ccccc2)cc1)N[C@@H]1CCOC1 (racemic)",
    "activation (light induction), %": 12.2
  },
  {
    "Compound": "O=C(Nc1nnc(C2CCCC2)o1)C1CCCCC1",
    "activation (light induction), %": -0.004
  },
  {
    "Compound": "Cc1ccc2cc3c(NC(=O)c4cc5ccccc5o4)nn(C)c3nc2c1",
    "activation (light induction), %": -0.011
  },
  {
    "Compound": "Cc1ccc2cc3c(NC(=O)c4ccccn4)nn(C)c3nc2c1",
    "activation (light induction), %": -0.008
  },
  {
    "Compound": "CN1CCC(C(=O)Nc2nnc(-c3ccc4c(c3)OCCO4)o2)CC1",
    "activation (light induction), %": 0.038
  },
  {
    "Compound": "O=C(Nc1nnc(-c2ccc3c(c2)OCCO3)o1)C1CCC1",
    "activation (light induction), %": 0.011
  }
]
